assay-system: HLA-B*48:01
procedure-details: IEDB peptide-MHC binding, purified MHC/direct/fluorescence; filed as Kd, often an IC50 or EC50 that approximates it; bounds were set here for any values at or beyond the usual limits of such assays
assay-context: source organism: Giardia lamblia ATCC 50803
parameter: Kd

[[record]]
sequence_text = "EIRHRSGIQ"
reported_value = "≥ 20 µM"

[[record]]
sequence_text = "IARLVYKAR"
reported_value = "≥ 20 µM"


Now look at this one.
Sample `GMNEVTKAL` — what was its Kd? 0.359 µM

---

assay-system: HLA-A*03:01
procedure-details: IEDB peptide-MHC binding, purified MHC/direct/fluorescence; filed as Kd, often an IC50 or EC50 that approximates it; bounds were set here for any values at or beyond the usual limits of such assays
assay-context: source organism: Influenza A virus (A/South Carolina/1/1918(H1N1))
parameter: pKd
On this scale, pKd is minus log10 of a concentration expressed in M (mol/L).

I have this sequence here, `LMQGSTLPR` , and I need its recorded pKd. 5.22
